Biological target: T1, P6-AA-1HGe-D
T1 chain: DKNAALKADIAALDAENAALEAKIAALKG
Assay: two-hybrid library CCmax;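 note: natural log of median RNA to DNA barcode read ratio; higher means stronger binding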
Details: mean of both orientations
Measurement kind: interaction score

# Binder, interaction score
records = [
    ("DENAALEAMIAALMAKNAALKAEIAALEG [P5-AA-1HGe-M]", 1.82),
]

A. DENAALEASIAALSAKNAALKAEIAALEG [P5-AA-1HGe-S]
B. DENAALEAYIAALYAKNAALKAEIAALEG [P5-AA-1HGe-Y]
C. DENAALEADIAALDAKNAALKAEIAALEG [P5-AA-1HGe-D]
Req: Hey, can you sort those binders up there by interaction score, smallest first? Output the labels ranked as instructed.
Resp: C, A, B
(C: -1.28, A: 0.0672, B: 1.37)

I. DENAALEAAIAALAAKNAALKAEIAALEG [P5-AA-1HGe-A]
II. DENAALEARIAALRAKNAALKAEIAALEG [P5-AA-1HGe-R]
Req: Between the entries labelled I and II , which has a larger interaction score value on record? State the label of the item chosen.
Resp: II
